We begin with a simple list: items and their reported IC50.
- test_system: human, KCNT1 (Homo sapiens (Human))
- Sequence (Q5JUK3 whole entry): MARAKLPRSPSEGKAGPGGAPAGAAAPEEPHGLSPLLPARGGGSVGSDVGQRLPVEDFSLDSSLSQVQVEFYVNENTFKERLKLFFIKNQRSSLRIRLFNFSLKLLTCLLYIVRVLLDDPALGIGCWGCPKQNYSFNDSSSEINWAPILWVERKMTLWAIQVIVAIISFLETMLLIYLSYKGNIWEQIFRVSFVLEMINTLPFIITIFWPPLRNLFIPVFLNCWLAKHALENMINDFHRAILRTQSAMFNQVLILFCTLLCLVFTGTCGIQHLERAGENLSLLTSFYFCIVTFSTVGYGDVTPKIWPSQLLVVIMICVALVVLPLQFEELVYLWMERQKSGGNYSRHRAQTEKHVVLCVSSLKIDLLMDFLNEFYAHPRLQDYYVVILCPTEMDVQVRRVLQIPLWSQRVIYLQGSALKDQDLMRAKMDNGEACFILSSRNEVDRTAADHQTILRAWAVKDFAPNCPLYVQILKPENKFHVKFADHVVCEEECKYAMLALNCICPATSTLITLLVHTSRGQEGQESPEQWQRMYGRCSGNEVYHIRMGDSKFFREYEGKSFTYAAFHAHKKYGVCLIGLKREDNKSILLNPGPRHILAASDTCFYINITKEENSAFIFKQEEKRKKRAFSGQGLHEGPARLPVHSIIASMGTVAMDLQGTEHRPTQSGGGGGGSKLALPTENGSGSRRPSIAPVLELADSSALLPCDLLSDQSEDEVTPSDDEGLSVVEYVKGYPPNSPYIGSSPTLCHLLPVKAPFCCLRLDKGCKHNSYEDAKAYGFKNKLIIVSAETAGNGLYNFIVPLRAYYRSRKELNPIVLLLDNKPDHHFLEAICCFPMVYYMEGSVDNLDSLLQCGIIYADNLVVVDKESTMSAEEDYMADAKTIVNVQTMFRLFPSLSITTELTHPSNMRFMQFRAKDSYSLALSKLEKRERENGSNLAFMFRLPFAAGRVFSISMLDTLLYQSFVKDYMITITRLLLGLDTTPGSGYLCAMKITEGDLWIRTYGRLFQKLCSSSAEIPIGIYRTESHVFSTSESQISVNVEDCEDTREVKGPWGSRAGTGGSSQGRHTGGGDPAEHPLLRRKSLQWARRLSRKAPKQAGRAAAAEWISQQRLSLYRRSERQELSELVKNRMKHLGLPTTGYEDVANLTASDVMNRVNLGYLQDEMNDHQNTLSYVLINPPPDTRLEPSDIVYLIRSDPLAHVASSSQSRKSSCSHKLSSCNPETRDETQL
- assay_name: FLIPR Tl/K Flux Assay
- test_conditions: HEK293 cells stably expressing human KCNT1; Tl+ flux stimulated with EC80 of agonist Loxapine
measured_quantity: IC50

{"compound": "O=C(N[C@@H]1CCCn2nc(-c3cc(C(F)(F)F)ncc3F)nc21)c1cncc(C(F)(F)F)n1 [Compound I-502b]", "measured_quantity": "IC50", "result": "> 1000 nM"}
{"compound": "Cn1nc(C(F)(F)F)cc1C(=O)N[C@H]1CCCn2nc(-c3nnc(C(F)(F)F)o3)cc21 [Compound I-316a]", "measured_quantity": "IC50", "result": "500 to 1000 nM"}
{"compound": "CS(=O)(=O)c1ccc(C(=O)N[C@H]2CCc3nn(-c4ccnc(C(F)(F)F)c4)cc32)cc1 [Compound I-96a]", "measured_quantity": "IC50", "result": "> 1000 nM"}
{"compound": "Cc1cnc(C(F)(F)F)cc1-n1cc2c(n1)CCC[C@@H]2NC(=O)c1cc(C(F)(F)F)nn1C [Compound I-445a]", "measured_quantity": "IC50", "result": "< 250 nM"}
{"compound": "N#Cc1cccc(C(=O)N[C@@H]2CCCCc3oc(-c4ccnc(C(F)(F)F)c4)nc32)c1 [Compound I-160b]", "measured_quantity": "IC50", "result": "< 250 nM"}
{"compound": "Cn1nc(C(F)(F)F)cc1C(=O)N[C@H]1CCCn2nc(-c3ccnc(C4(C)CC4)c3)cc21 [Compound I-459a]", "measured_quantity": "IC50", "result": "< 250 nM"}
{"compound": "O=C(N[C@H]1CCCc2oc(-c3ccnc(C(F)(F)F)c3)nc21)c1cc2cccnn2c1 [Compound I-296a]", "measured_quantity": "IC50", "result": "< 250 nM"}
